Where these numbers come from: ChEMBL document CHEMBL4229526

Each entry below carries its recorded pIC50.
System: THP-1
Test: Cytotoxicity against human THP1 cells infected with Leishmania donovani MHOM/SD/62/1S-CL2D LdBOB amastigotes harboring eGFP assessed as reduction in cell number after 96 hrs by DAPI staining based microscopic analysis
Conditions: THP-1, 96 h
On this scale, pIC50 is minus log10 of a concentration expressed in M (mol/L).

For orientation, consider the following solved cases.
CCCCNc1nc2cc(Cl)ccc2nc1S(C)(=O)=O
5.30
CCCCNc1nc2ccc(OC)cc2nc1S(C)(=O)=O
4.90
COc1ccc2nc(NCCO)c(S(C)(=O)=O)nc2c1
4.50
CCCCNc1nc2ccccc2nc1S(C)(=O)=O
4.90
C[S+]([O-])c1ccc(-c2nc3ccc(Cl)cc3nc2-c2ccc(Cl)cc2)cc1 (stereo unspecified)
5.80
CS(=O)(=O)c1ccc(-c2nc3ccc(Br)cc3nc2-c2ccc(Cl)cc2)cc1
5.70

[in] Need pIC50, item `COc1ccc2nc(NC3CCCCC3)c(S(C)(=O)=O)nc2c1`
[out] 5.00

[in] Entry `COc1ccc2nc(S(C)(=O)=O)c(NC3CCCCC3)nc2c1` please
[out] 4.50

[in] Similarly, `CS(=O)(=O)c1ccc(-c2nc3ccc(Cl)cc3nc2-c2ccc(Cl)cc2)cc1` ?
[out] 5.80
